Data credit: patent US20120316071A1

# assayed target: T1, Recombinant Human DLL4 (R&D Systems Cat#1506-D4/CF) (human, UniProt Q9NR61 27-524)
# T1 construct: Bought recombinant protein; also called delta-like protein 4; rHuman DLL4
# assay method text: ECL (MSD) multispot binding assay, DLL4 spotted on plate, Fab in solution
reported endpoint: ECL signal
I only need the number, thanks.

binder: Fab VH1-46_IGHD6-6*01_IGHJ1*01 S102A/S103P/S104F/H111F (APFF) & L6_IGKJ1*01 S28K (Fab, V domains shown, Tested as a Fab; Expressed in E. coli from Plasmid A (CH1 with His6 and Flag tags) and Plasmid C (kappa CL); also called APFF & S28K) VH: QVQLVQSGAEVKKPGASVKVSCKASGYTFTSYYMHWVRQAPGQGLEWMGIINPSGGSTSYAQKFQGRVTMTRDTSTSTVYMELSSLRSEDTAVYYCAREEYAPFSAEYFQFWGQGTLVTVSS VL: EIVLTQSPATLSLSPGERATLSCRASQKVSSYLAWYQQKPGQAPRLLIYDASNRATGIPARFSGSGSGTDFTLTISSLEPEDFAVYYCQQRSNWPPWTFGQGTKVEIKR
quantitative result: 124000

binder: Fab VH1-46_IGHD6-6*01_IGHJ1*01 S102A/S103P/S104F (APF) & L6_IGKJ1*01 S30R (Fab, V domains shown, Tested as a Fab; Expressed in E. coli from Plasmid A (CH1 with His6 and Flag tags) and Plasmid C (kappa CL); also called APF & S30R) VH: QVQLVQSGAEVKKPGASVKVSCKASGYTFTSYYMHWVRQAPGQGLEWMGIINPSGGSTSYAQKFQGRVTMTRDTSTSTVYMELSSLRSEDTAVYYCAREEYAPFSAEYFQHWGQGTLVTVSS VL: EIVLTQSPATLSLSPGERATLSCRASQSVRSYLAWYQQKPGQAPRLLIYDASNRATGIPARFSGSGSGTDFTLTISSLEPEDFAVYYCQQRSNWPPWTFGQGTKVEIKR
quantitative result: 745

Here is another binder to look at.
The binder Fab VH1-46_IGHD6-6*01_IGHJ1*01 S102A/S103P/S104F (APF) & L6_IGKJ1*01 Y32S (Fab, V domains shown, Tested as a Fab; Expressed in E. coli from Plasmid A (CH1 with His6 and Flag tags) and Plasmid C (kappa CL); also called APF & Y32S) VH: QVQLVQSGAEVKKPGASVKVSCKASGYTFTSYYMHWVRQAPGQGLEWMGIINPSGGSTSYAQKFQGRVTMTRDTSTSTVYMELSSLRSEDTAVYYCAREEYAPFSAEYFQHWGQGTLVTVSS VL: EIVLTQSPATLSLSPGERATLSCRASQSVSSSLAWYQQKPGQAPRLLIYDASNRATGIPARFSGSGSGTDFTLTISSLEPEDFAVYYCQQRSNWPPWTFGQGTKVEIKR showed ECL signal equal to 1030
